- System: Acinetobacter baumannii
- test method notes: Bacteriostatic activity, micro broth dilution MIC (CLSI)
- Format: cell-based
- experimental context: clinical strains (carbapenem-resistant), CAMHB, 20 hours, read-out: Acinetobacter baumannii Clinical strain MIC90
quantity measured: log10 MIC90 (log10 of the value in µg/mL)
Annotation: log10 of MIC90, µg/mL basis.

Please review the following examples before continuing.
molecule=COc1ccnc2c(O)ccc([N+](=O)[O-])c12 result=1.51
molecule=O=[N+]([O-])c1ccc(O)c2nccc(C(F)(F)F)c12 result=0.90
molecule=O=C(OC1CCCCC1)c1cnc2c(O)ccc([N+](=O)[O-])c2c1 result=2.11
molecule=N#Cc1ccnc2c(O)ccc([N+](=O)[O-])c12 result=1.51
molecule=O=[N+]([O-])c1cc(F)c(O)c2ncccc12 result=1.20
molecule="CC(C)c1cc(O)c2ncccc2c1[N+](=O)[O-] [Example 33, 8-hydroxy-6-isopropyl-5-nitroquinoline]" result=1.81

Kindly note the recorded log10 MIC90 for O=[N+]([O-])c1c(C2CC2)cc(O)c2ncccc12 [Example 34, 8-hydroxy-6-cyclopropyl-5-nitroquinoline] , which is 1.51

* * *

Documented IC50 across a set of compounds
- Test system: Prostate cancer cell line LNcaP Clone FGC
- test method notes: Inhibitory activity on cancer cells, CellTiter-Glo viability, 72 h
- Type: cell-based
- experimental context: Homo sapiens
State just the number; it will be interpreted in µM.

Examples with answers:
compound="O=[N+]([O-])c1ccc(O)c2nccc(Cl)c12 [Example 2, 4-chloro-5-nitroquinolin-8-ol]" quantity_measured=IC50 unit_spec=µM result=4.9
compound="O=[N+]([O-])c1ccc(O)c2nccc(-c3cccnc3)c12 [Example 17, 5-nitro-4-(pyridin-3-yl)quinolin-8-ol]" quantity_measured=IC50 unit_spec=µM result=4.8

Consider the additional compound presented here.
Lab note: O=[N+]([O-])c1ccc(O)c2nccc(C3CCCC3)c12 [Example 24, 4-cyclopentyl-5-nitroquinolin-8-ol] gave IC50 of 0.8

* * *

The reader will find reported log10(MIC90) values listed item by item below.
- Tested on: Acinetobacter baumannii
- test method notes: Bacteriostatic activity, micro broth dilution MIC (CLSI)
- Assay type: cell-based
- experimental context: clinical strains (carbapenem-resistant), CAMHB, 20 hours, read-out: Acinetobacter baumannii Clinical strain MIC90
Reminder: these figures are log10 of reported MIC90, in µg/mL before transformation.

smiles_text=CCOC(=O)c1cnc2c(O)ccc([N+](=O)[O-])c2c1 quantity_measured=log10(MIC90) result=2.11
smiles_text=O=[N+]([O-])c1ccc(O)c2nccc(C3CCCC3)c12 quantity_measured=log10(MIC90) result=1.81
smiles_text=O=[N+]([O-])c1ccc(O)c2nccc(C3CC3)c12 quantity_measured=log10(MIC90) result=1.20

Kindly note the recorded log10(MIC90) for O=[N+]([O-])c1ccc(O)c2nccc(Cl)c12 , which is 0.90

For record O=[N+]([O-])c1ccc(O)c2nccc(C3CCCCC3)c12 the listed log10(MIC90) is 1.51

Looking up O=[N+]([O-])c1ccc(O)c2nccc(-c3ccccc3)c12 , I found its log10(MIC90) recorded as 2.11

* * *

- Test system: Prostate cancer cell line LNcaP Clone FGC
- test method notes: Inhibitory activity on cancer cells, CellTiter-Glo viability, 72 h
- Format: cell-based
- experimental context: Homo sapiens
Below: a set of entries, each annotated with reported IC50.
Please reply with the bare figure in µM and do not write the unit itself.

molecule="CC1CCCCN1c1ccnc2c(O)ccc([N+](=O)[O-])c12 (centres unmarked)" unit_spec=µM result=1.2
molecule=COc1ccnc2c(O)ccc([N+](=O)[O-])c12 unit_spec=µM result=1.8
molecule=O=[N+]([O-])c1ccc(O)c2nccc(N3CCOCC3)c12 unit_spec=µM result=5.5
molecule=O=[N+]([O-])c1ccc(O)c2nccc(-c3ccncc3)c12 unit_spec=µM result=3.8

molecule CCOC(=O)N1CCN(c2ccnc3c(O)ccc([N+](=O)[O-])c23)CC1 , IC50 observed: 2.7

Noted for O=[N+]([O-])c1ccc(O)c2nccc(-c3ccccc3)c12 : its IC50 reads 1.7

Briefly, IC50 measured for O=[N+]([O-])c1ccc(O)c2nccc(C3CC3)c12 : 1.9

Looking up O=[N+]([O-])c1ccc(O)c2ncccc12 [Nitroxoline, 5-nitro-8-hydroxyquinoline] , I see its IC50 listed as 5.1
